- Assay System: MST1R (Homo sapiens, UniProt Q04912)
- Construct: purchased Eurofins DiscoverX KINOMEscan (scanTK)
- Sequence (Q04912 25-1400): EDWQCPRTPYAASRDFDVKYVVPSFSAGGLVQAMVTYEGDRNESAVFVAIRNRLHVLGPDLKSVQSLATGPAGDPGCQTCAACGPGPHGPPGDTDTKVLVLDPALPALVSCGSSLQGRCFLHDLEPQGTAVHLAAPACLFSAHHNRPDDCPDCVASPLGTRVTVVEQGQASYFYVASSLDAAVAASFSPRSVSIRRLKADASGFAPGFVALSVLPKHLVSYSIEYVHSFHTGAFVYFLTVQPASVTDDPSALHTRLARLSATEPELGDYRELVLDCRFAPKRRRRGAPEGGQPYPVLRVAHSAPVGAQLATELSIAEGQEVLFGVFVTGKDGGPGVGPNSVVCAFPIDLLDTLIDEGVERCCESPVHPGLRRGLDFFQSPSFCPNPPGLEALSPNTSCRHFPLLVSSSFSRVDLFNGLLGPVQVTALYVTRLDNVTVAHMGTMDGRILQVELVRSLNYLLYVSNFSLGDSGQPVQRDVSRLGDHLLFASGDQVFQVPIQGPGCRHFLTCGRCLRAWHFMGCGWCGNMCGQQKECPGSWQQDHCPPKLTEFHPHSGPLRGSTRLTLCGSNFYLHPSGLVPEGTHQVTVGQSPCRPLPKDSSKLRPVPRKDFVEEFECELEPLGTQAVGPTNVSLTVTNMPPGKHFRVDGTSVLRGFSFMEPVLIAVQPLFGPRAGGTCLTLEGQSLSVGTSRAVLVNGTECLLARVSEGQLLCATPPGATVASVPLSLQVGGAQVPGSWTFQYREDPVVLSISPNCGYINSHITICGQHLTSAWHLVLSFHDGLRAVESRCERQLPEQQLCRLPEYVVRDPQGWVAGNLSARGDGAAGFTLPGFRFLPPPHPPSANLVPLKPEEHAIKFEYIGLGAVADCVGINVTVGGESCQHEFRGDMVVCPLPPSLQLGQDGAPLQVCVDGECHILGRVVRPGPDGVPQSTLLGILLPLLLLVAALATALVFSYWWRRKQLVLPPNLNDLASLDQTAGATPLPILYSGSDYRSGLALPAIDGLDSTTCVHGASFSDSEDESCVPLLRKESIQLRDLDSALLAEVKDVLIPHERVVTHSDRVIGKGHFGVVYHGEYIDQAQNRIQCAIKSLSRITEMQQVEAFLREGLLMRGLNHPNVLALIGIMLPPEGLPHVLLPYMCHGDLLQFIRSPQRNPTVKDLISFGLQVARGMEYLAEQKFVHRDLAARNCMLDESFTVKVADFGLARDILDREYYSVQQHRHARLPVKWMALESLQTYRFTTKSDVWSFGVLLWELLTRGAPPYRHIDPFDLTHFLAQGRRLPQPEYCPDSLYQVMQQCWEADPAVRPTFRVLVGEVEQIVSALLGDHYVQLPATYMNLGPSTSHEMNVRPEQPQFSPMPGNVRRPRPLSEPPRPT
- Experimental Protocol: KINOMEscan ScanTK
- Assay type: binding
- Applied Conditions: read-out: %Control @1000nM
Assay Endpoint: remaining binding at 1 µM (%)
Return type: number; implicit unit %.

Field: example entries. Status: answers known.
[
  {
    "Compound": "CNC(=O)c1cnc(S(C)(=O)=O)nc1N1CCCC(n2nc(-c3ccc(Oc4ccccc4)cc3)c3c(N)ncnc32)C1 (stereo not shown)",
    "remaining binding at 1 µM / %": 100
  },
  {
    "Compound": "Cc1cnc(S(C)(=O)=O)nc1N1CCCC(n2nc(-c3ccc(Oc4ccccc4)cc3)c3c(N)ncnc32)C1 (stereo not shown)",
    "remaining binding at 1 µM / %": 100
  },
  {
    "Compound": "COC(=O)c1cnc(S(C)(=O)=O)nc1N1CCCC(n2nc(-c3ccc(Oc4ccccc4)cc3)c3c(N)ncnc32)C1 (stereo not shown)",
    "remaining binding at 1 µM / %": 96
  }
]

Now take the following compound into account.
Per the record, `CCOC(=O)c1cnc(S(C)(=O)=O)nc1N1CCC[C@@H](n2nc(-c3ccc(Oc4ccccc4)cc3)c3c(N)ncnc32)C1` has remaining binding at 1 µM of 98

###

- Assay System: FGR (Homo sapiens, UniProt P09769)
- Construct: purchased Eurofins DiscoverX KINOMEscan (scanTK)
- Sequence (P09769 whole entry): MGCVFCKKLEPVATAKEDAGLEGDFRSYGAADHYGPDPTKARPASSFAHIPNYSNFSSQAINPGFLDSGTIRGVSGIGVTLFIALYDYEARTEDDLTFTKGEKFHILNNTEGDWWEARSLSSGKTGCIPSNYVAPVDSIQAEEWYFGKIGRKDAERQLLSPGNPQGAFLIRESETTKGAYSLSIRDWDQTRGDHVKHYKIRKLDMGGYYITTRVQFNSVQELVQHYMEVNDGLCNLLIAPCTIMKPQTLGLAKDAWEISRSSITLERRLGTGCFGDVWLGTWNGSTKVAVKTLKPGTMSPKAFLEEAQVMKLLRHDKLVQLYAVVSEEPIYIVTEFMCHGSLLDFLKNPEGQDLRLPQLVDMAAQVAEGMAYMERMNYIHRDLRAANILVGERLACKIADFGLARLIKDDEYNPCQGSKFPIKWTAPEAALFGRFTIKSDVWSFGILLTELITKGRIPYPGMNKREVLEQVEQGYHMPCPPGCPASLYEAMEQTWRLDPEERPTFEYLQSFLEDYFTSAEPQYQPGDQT
- Experimental Protocol: KINOMEscan ScanTK
- Format: binding
- Applied Conditions: read-out: %Control @1000nM
Here, each record is paired with measured remaining binding at 1 µM data.
Provide only the numeric value, understood in %.

Worked cases, answers included:
[
  {
    "Molecule": "CNC(=O)c1cnc(S(C)(=O)=O)nc1N1CCCC(n2nc(-c3ccc(Oc4ccccc4)cc3)c3c(N)ncnc32)C1 (stereo not shown) [Compound 8d]",
    "remaining binding at 1 µM / %": 16
  },
  {
    "Molecule": "COC(=O)c1cnc(S(C)(=O)=O)nc1N1CCCC(n2nc(-c3ccc(Oc4ccccc4)cc3)c3c(N)ncnc32)C1 (stereo not shown) [Compound 8b]",
    "remaining binding at 1 µM / %": 26
  },
  {
    "Molecule": "Cc1cnc(S(C)(=O)=O)nc1N1CCCC(n2nc(-c3ccc(Oc4ccccc4)cc3)c3c(N)ncnc32)C1 (stereo not shown) [Compound 8a]",
    "remaining binding at 1 µM / %": 8.6
  }
]

Could you now consider this next molecule?
For reference, reported remaining binding at 1 µM for CCOC(=O)c1cnc(S(C)(=O)=O)nc1N1CCC[C@@H](n2nc(-c3ccc(Oc4ccccc4)cc3)c3c(N)ncnc32)C1 [Compound 8c] stands at 19

###

- Assay System: FRK (Homo sapiens)
- Construct: purchased Eurofins DiscoverX KINOMEscan (scanTK)
- Sequence (P42685 whole entry): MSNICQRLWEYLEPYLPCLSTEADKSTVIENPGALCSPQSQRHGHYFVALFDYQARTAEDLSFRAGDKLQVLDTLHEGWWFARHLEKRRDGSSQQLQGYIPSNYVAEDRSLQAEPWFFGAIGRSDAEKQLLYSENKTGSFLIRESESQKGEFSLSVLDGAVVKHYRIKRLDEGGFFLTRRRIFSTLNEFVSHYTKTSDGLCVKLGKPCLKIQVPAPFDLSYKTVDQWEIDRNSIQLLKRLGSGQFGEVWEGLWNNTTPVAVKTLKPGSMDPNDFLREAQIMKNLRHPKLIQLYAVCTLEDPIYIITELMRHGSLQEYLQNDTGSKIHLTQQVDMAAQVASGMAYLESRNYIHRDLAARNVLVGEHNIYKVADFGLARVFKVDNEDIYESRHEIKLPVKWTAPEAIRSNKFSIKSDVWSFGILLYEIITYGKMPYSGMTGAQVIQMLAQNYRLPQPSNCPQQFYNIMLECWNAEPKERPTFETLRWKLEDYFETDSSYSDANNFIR
- Experimental Protocol: KINOMEscan ScanTK
- Format: binding
- Applied Conditions: @1000nM
Assay Endpoint: difference in %Control versus compound Ib at 1 µM
Don't forget the unit after the value.

[
  {
    "Compound": "CCOC(=O)c1cnc(S(C)(=O)=O)nc1N1CCC[C@@H](n2nc(-c3ccc(Oc4ccccc4)cc3)c3c(N)ncnc32)C1 [Compound 8c]",
    "Observed Measurement": "66.7%"
  },
  {
    "Compound": "CNC(=O)c1cnc(S(C)(=O)=O)nc1N1CCCC(n2nc(-c3ccc(Oc4ccccc4)cc3)c3c(N)ncnc32)C1 (stereo not shown) [Compound 8d]",
    "Observed Measurement": "33.7%"
  },
  {
    "Compound": "Cc1cnc(S(C)(=O)=O)nc1N1CCCC(n2nc(-c3ccc(Oc4ccccc4)cc3)c3c(N)ncnc32)C1 (stereo not shown) [Compound 8a]",
    "Observed Measurement": "38.7%"
  }
]

Continue with the next compound.
Sample COC(=O)c1cnc(S(C)(=O)=O)nc1N1CCCC(n2nc(-c3ccc(Oc4ccccc4)cc3)c3c(N)ncnc32)C1 (stereo not shown) [Compound 8b] , system: FRK (Homo sapiens). Its difference in %Control versus compound Ib at 1 µM is 69.7%
